# target of assay: acetylcholinesterase (AChE) from termite whole bodies
# test description: Acetylcholinesterase (AChE) inhibition, modified Ellman's method
# run conditions: crude enzyme from termite whole bodies, pH 8.0, 25 °C; read-out: IC50 against AChE
# Procedure: Whole bodies of termites (20 mg) were homogenized in 1 mL of 0.1 M phosphate buffer (pH 8.0), and the homogenate was centrifuged at 12,000 rpm for 20 min. The supernatant was used as the enzyme source. All procedural steps for preparing the crude enzyme were performed at 4 °C [26]. The AChE activity was measured using the modified Ellman’s method. […] Enzyme activity was measured for 20 min at 412 nm. […]
experimental endpoint: IC50 (µM)
State the answer as a number, implicitly in µM.

Worked cases, IC50 given:
# compound, experimental endpoint, recorded number
rows = [
    ("COP(=S)(OC)Oc1ccc([N+](=O)[O-])c(C)c1 [Fenitrothion, reference compound]", "IC50", 182),
    ("CCOP1(=S)N[C@@H](Cn2ccc(=O)c(O)c2)CO1 (some centres unmarked)", "IC50", 104),
    ("COP1(=S)N[C@@H](Cn2ccc(=O)c(O)c2)CO1 (some centres unmarked)", "IC50", 95.9),
    ("O=c1cc(CO)occ1O", "IC50", 5480),
]

Next compound, please.
Request the reported IC50 associated with NC(Cn1ccc(=O)c(O)c1)C(=O)O (centres unmarked)
1530

====

# Tested on: termites
# test description: No-choice contact assay against termites
# Type: in vivo
# run conditions: 100 μg/mL, no-choice contact method, seven days treatment
Each entry below carries its recorded Mortality (%).

Worked cases, Mortality (%) given:
# compound, Mortality (%)
records = [
    ("CCCOP1(=S)N[C@@H](Cn2ccc(=O)c(O)c2)CO1 (stereo partly shown) [Compound 2c]", "44.4 ± 1.9 e %"),
    ("COP1(=S)N[C@@H](Cn2ccc(=O)c(O)c2)CO1 (stereo partly shown) [Compound 2a]", "70.6 ± 0.6 b %"),
    ("CCCOP1(=S)N[C@@H](Cn2ccc(=O)c(O)c2)CO1 (stereo partly shown) [Compound 1c]", "59.4 ± 1.3 cd %"),
]

Request the reported Mortality (%) associated with NC(Cn1ccc(=O)c(O)c1)C(=O)O (stereo not shown) [Mimosine]
7.5 ± 1.0 f %

====

# Test system: termites
# test description: No-choice contact assay against termites
# Assay type: in vivo
# run conditions: 250 μg/mL, no-choice contact method, seven days treatment
experimental endpoint: Mortality (%)

Request the reported Mortality (%) associated with `N[C@H](CO)Cn1ccc(=O)c(O)c1`
68.5 ± 0.6 c %

Request the reported Mortality (%) associated with COP1(=S)N[C@@H](Cn2ccc(=O)c(O)c2)CO1 (stereo partly shown) [Compound 2a]
82.5 ± 1.3 ab %

Request the reported Mortality (%) associated with CCCOP1(=S)N[C@@H](Cn2ccc(=O)c(O)c2)CO1 (stereo partly shown) [Compound 2c]
52.5 ± 3.8 d %

Request the reported Mortality (%) associated with COP1(=S)N[C@@H](Cn2ccc(=O)c(O)c2)CO1 (stereo partly shown) [Compound 1a]
90.6 ± 1.3 a %

Request the reported Mortality (%) associated with C=C(C)[C@H]1Cc2c(ccc3c2O[C@@H]2COc4cc(OC)c(OC)cc4[C@@H]2C3=O)O1 [Rotenone, rotenone, reference compound]
80.0 ± 0.9 b %

====

# Test system: termites
# test description: No-choice contact assay against termites
# Format: in vivo
# run conditions: 100 μg/mL, no-choice contact method, seven days treatment
Each entry below carries its recorded Mortality (%).
State the answer as a number, implicitly in de %.

# compound, Mortality (%) [de %]
measured = [
    ("N[C@H](CO)Cn1ccc(=O)c(O)c1", 52.5),
    ("CCOP1(=S)N[C@@H](Cn2ccc(=O)c(O)c2)CO1 (stereo partly shown)", 52.5),
]

Next compound, please.
# get_value(readout= Mortality (%), system= termites) for `[2H]C([2H])(O)[C@@H](N)Cn1ccc(=O)c(O)c1`
53.8

====

# Tested on: termites
# test description: No-choice contact assay against termites
# Type: in vivo
# run conditions: 50 μg/mL, no-choice contact method, seven days treatment
Each entry below carries its recorded Mortality (%).

Worked cases, Mortality (%) given:
# molecule, experimental endpoint, result
data = [
    ("C=C(C)[C@H]1Cc2c(ccc3c2O[C@@H]2COc4cc(OC)c(OC)cc4[C@@H]2C3=O)O1 [Rotenone, rotenone, reference compound]", "Mortality (%)", "48.8 ± 0.9 bc %"),
    ("CCCOP1(=S)N[C@@H](Cn2ccc(=O)c(O)c2)CO1 (some centres unmarked) [Compound 1c]", "Mortality (%)", "45.6 ± 0.4 bc %"),
    ("[2H]C([2H])(O)[C@@H](N)Cn1ccc(=O)c(O)c1 [D-mimosinol, deuterated mimosinol]", "Mortality (%)", "33.1 ± 1.9 de %"),
    ("COP1(=S)N[C@@H](Cn2ccc(=O)c(O)c2)CO1 (some centres unmarked) [Compound 2a]", "Mortality (%)", "48.8 ± 2.5 bc %"),
    ("NC(Cn1ccc(=O)c(O)c1)C(=O)O (centres unmarked) [Mimosine]", "Mortality (%)", "2.5 ± 1.1 f %"),
    ("CCOP1(=S)N[C@@H](Cn2ccc(=O)c(O)c2)CO1 (some centres unmarked) [Compound 2b]", "Mortality (%)", "42.5 ± 2.5 bcd %"),
    ("N[C@H](CO)Cn1ccc(=O)c(O)c1 [Mimosinol, mimosinol]", "Mortality (%)", "38.1 ± 1.3 cde %"),
]

Next molecule, please.
Request the reported Mortality (%) associated with CCCOP1(=S)N[C@@H](Cn2ccc(=O)c(O)c2)CO1 (some centres unmarked) [Compound 2c]
29.4 ± 1.9 e %

====

# Test system: termites
# test description: No-choice contact assay against termites
# Type: in vivo
# run conditions: 250 μg/mL, no-choice contact method, seven days treatment
Each entry below carries its recorded Mortality (%).

Worked cases, Mortality (%) given:
# compound, Mortality (%)
data = [
    ("NC(Cn1ccc(=O)c(O)c1)C(=O)O (centres unmarked) [Mimosine]", "9.1 ± 2.0 e %"),
    ("CCOP1(=S)N[C@@H](Cn2ccc(=O)c(O)c2)CO1 (some centres unmarked) [Compound 1b]", "84.4 ± 2.2 ab %"),
    ("CCOP1(=S)N[C@@H](Cn2ccc(=O)c(O)c2)CO1 (some centres unmarked) [Compound 2b]", "63.8 ± 0.0 c %"),
    ("[2H]C([2H])(O)[C@@H](N)Cn1ccc(=O)c(O)c1 [D-mimosinol, deuterated mimosinol]", "60.6 ± 0.6 cd %"),
]

# get_value(readout= Mortality (%), system= termites) for CCCOP1(=S)N[C@@H](Cn2ccc(=O)c(O)c2)CO1 (some centres unmarked) [Compound 1c]
77.5 ± 0.9 b %

The measured values listed here are drawn from paper PMC6332359.
